Data origin: paper PMC10786919

ASSAY_INFO: Solubility assay (kinetic solubility, PBS pH 7)
Type: physicochemical
REPORTED_CONDITIONS: pH 7, aqueous buffer, kinetic from dmso stock, pH 7, PBS; read-out: Solubility
Positions of bridges follow the written chain, without caps; N, C: chain ends. Non-standard residues stand in square brackets, D forms with d. Residues, ends and D or L forms follow the SMILES beside them. Lys(N3) = [N-]=[N+]=NCCCC[C@H](N)C(=O)O; R8 = C=CCCCCCC[C@@](C)(N)C(=O)O; Cba = N[C@@H](CC1CCC1)C(=O)O; S5 = C=CCCC[C@](C)(N)C(=O)O; βAla = NCCC(=O)O; Sar = CNCC(=O)O
Recorded solubility kinetic for the following compounds
ASSAY_ENDPOINT: solubility kinetic (µM)

{"columns": ["COMPOUND", "OBSERVED_RESULT"],
 "data": [
  ["CC(=O)N[C@@H](CCCCN=[N+]=[N-])C(=O)NCCC(=O)N[C@@H](CO)C(=O)N[C@H](C(=O)N[C@@H](Cc1ccccc1)C(=O)N[C@]1(C)CCCCCCC=CCCC[C@@](C)(C(=O)N[C@@H](CO)C(=O)N[C@@H](CO)C(=O)N[C@@H](CO)C(N)=O)NC(=O)[C@H](CC2CCC2)NC(=O)[C@H](CCC(N)=O)NC(=O)[C@H](CO)NC(=O)[C@H](Cc2c[nH]c3ccccc23)NC(=O)[C@H](Cc2ccc(O)cc2)NC(=O)[C@H](CO)NC1=O)[C@@H](C)O [MP-667] (Ac-[Lys(N3)][βAla]STF[R8]SYWSQ[Cba][S5]SSS-NH2; staple 6-13)", 2],
  ["CC(=O)N[C@@H](CCCCN=[N+]=[N-])C(=O)NCCC(=O)N[C@@H](CC(C)C)C(=O)N[C@H](C(=O)N[C@@H](Cc1ccccc1)C(=O)N[C@]1(C)CCCCCCC=CCCC[C@@](C)(C(=O)N[C@@H](CO)C(=O)N[C@@H](C)C(=O)N[C@@H](C)C(N)=O)NC(=O)[C@H](CC2CCC2)NC(=O)[C@H](CCC(N)=O)NC(=O)[C@H](CCCCN)NC(=O)[C@H](Cc2c[nH]c3ccccc23)NC(=O)[C@H](Cc2ccc(O)cc2)NC(=O)[C@H](CCC(=O)O)NC1=O)[C@@H](C)O [MP-549, AZIDE-ATSP-7041 (A8K)]", 4.5],
  ["CC(=O)N[C@@H](CCCCN=[N+]=[N-])C(=O)NCCC(=O)N[C@@H](CC(C)C)C(=O)N[C@H](C(=O)N[C@@H](Cc1ccccc1)C(=O)N[C@]1(C)CCCCCCC=CCCC[C@@](C)(C(=O)N[C@@H](CO)C(=O)N[C@@H](C)C(=O)N[C@@H](C)C(N)=O)NC(=O)[C@H](CC2CCC2)NC(=O)[C@H](CCC(N)=O)NC(=O)[C@H](C)NC(=O)[C@H](Cc2c[nH]c3ccccc23)NC(=O)[C@H](CCC(=O)O)NC(=O)[C@H](CCC(=O)O)NC1=O)[C@@H](C)O", 157],
  ["CC(=O)N(C)CC(=O)N[C@@H](CCCCN=[N+]=[N-])C(=O)NCCC(=O)N[C@@H](C)C(=O)N[C@H](C(=O)N[C@@H](Cc1ccccc1)C(=O)N[C@]1(C)CCCCCCC=CCCC[C@@](C)(C(=O)N[C@@H](C)C(=O)N[C@@H](C)C(=O)N[C@@H](C)C(N)=O)NC(=O)[C@H](CC2CCC2)NC(=O)[C@H](C)NC(=O)[C@H](C)NC(=O)[C@H](Cc2c[nH]c3ccccc23)NC(=O)[C@H](Cc2ccc(O)cc2)NC(=O)[C@H](C)NC1=O)[C@@H](C)O [MP-895] (Ac-[Sar][Lys(N3)][βAla]ATF[R8]AYWAA[Cba][S5]AAA-NH2; staple 7-14)", 2]
]}

----------
ASSAY_INFO: Lactate dehydrogenase (LDH) release assay
Format: cell-based
REPORTED_CONDITIONS: 0% FBS 4Hr; read-out: LDH: Cytotoxicity assay EC50
pEC50: −log10 of the molar value. Positions of bridges follow the written chain, without caps; N, C: chain ends. Non-standard residues stand in square brackets, D forms with d. Residues, ends and D or L forms follow the SMILES beside them. dPhe(4-CF3) = N[C@H](Cc1ccc(C(F)(F)F)cc1)C(=O)O; dTrp(6-F) = N[C@H](Cc1c[nH]c2cc(F)ccc12)C(=O)O; R5 = C=CCCC[C@@](C)(N)C(=O)O

{"columns": ["COMPOUND", "pEC50"],
 "data": [
  ["CC(=O)N[C@@H](CCCCN=[N+]=[N-])C(=O)NCCC(=O)N[C@@H](CC(C)C)C(=O)N[C@H](C(=O)N[C@@H](Cc1ccccc1)C(=O)N[C@]1(C)CCCCC#CC#CCCC[C@@](C)(C(=O)N[C@@H](C)C(=O)N[C@@H](C)C(=O)NC(C)(CCC(=O)O)C(=O)N[C@@H](C)C(=O)N[C@@H](C)C(=O)N[C@H](C)C(N)=O)NC(=O)[C@H](CC2CCC2)NC(=O)[C@H](CCC(N)=O)NC(=O)[C@H](C)NC(=O)[C@H](Cc2c[nH]c3ccccc23)NC(=O)[C@H](Cc2ccc(O)cc2)NC(=O)[C@H](CCC(=O)O)NC1=O)[C@@H](C)O (stereo partly shown)", "< 4.29"],
  ["CC(=O)N[C@@H](C(=O)N[C@H](C)C(=O)N[C@H](Cc1c[nH]c2cc(F)ccc12)C(=O)N[C@H](Cc1ccc(O)cc1)C(=O)N[C@H](C)C(=O)N[C@]1(C)CCCC=CCCC[C@](C)(C(=O)N[C@H](CC(C)C)C(=O)N[C@H](CO)C(N)=O)NC(=O)[C@@H](CCC(N)=O)NC(=O)[C@@H](CCC(=O)O)NC(=O)[C@@H](Cc2ccc(C(F)(F)F)cc2)NC1=O)[C@H](C)O [MP-797] (Ac-[dT][dA][dTrp(6-F)][dY][dA][R5][dPhe(4-CF3)][dE][dQ][R5][dL][dS]-NH2; staple 6-10)", "< 4.29"],
  ["CC(C)C[C@@H](NC(=O)[C@@]1(C)CCCC=CCCC[C@@](C)(NC(=O)[C@@H](C)NC(=O)[C@@H](Cc2ccc(O)cc2)NC(=O)[C@@H](Cc2c[nH]c3cc(F)ccc23)NC(=O)[C@@H](C)NC(=O)[C@H](N)[C@H](C)O)C(=O)N[C@H](Cc2ccc(C(F)(F)F)cc2)C(=O)N[C@H](CCC(=O)O)C(=O)N[C@H](CCC(N)=O)C(=O)N1)C(=O)N[C@H](CO)C(N)=O [MP-795] (H-[dT][dA][dTrp(6-F)][dY][dA][R5][dPhe(4-CF3)][dE][dQ][R5][dL][dS]-NH2; staple 6-10)", "< 4.29"],
  ["CC(=O)N[C@@H](CCCCN=[N+]=[N-])C(=O)NCCC(=O)N[C@@H](C)C(=O)N[C@H](C(=O)N[C@@H](Cc1ccccc1)C(=O)N[C@]1(C)CCCCCCC=CCCC[C@@](C)(C(=O)N[C@@H](CO)C(=O)N[C@@H](C)C(=O)N[C@@H](C)C(N)=O)NC(=O)[C@H](CC2CCC2)NC(=O)[C@H](CCC(N)=O)NC(=O)[C@H](C)NC(=O)[C@H](Cc2c[nH]c3ccccc23)NC(=O)[C@H](Cc2ccc(O)cc2)NC(=O)[C@H](CCC(=O)O)NC1=O)[C@@H](C)O [MP-952, AZIDE-ATSP-7041 (L1A)]", "< 4.30"]
]}

----------
Recorded EC50 for the following molecules
ASSAY_INFO: Lactate dehydrogenase (LDH) release assay
Format: cell-based
REPORTED_CONDITIONS: 4 hours, 0% serum; read-out: LDH Cytotoxicity assay EC50
ASSAY_ENDPOINT: EC50 (µM)

{"columns": ["MOLECULE", "MODIFIER_SIGN", "OBSERVED_RESULT"],
 "data": [
  ["CC(=O)N[C@@H](CCCCN=[N+]=[N-])C(=O)NCCC(=O)N[C@@H](CC(C)C)C(=O)N[C@H](C(=O)N[C@@H](C)C(=O)N[C@]1(C)CCCCCCC=CCCC[C@@](C)(C(=O)N[C@@H](CO)C(=O)N[C@@H](C)C(=O)N[C@@H](C)C(N)=O)NC(=O)[C@H](CC2CCC2)NC(=O)[C@H](CCC(N)=O)NC(=O)[C@H](C)NC(=O)[C@H](Cc2c[nH]c3ccccc23)NC(=O)[C@H](Cc2ccc(O)cc2)NC(=O)[C@H](CCC(=O)O)NC1=O)[C@@H](C)O [MP-892, AZIDE-ATSP-7041 (F3A)]", ">", 50],
  ["CC(=O)N[C@@H](CCCCN=[N+]=[N-])C(=O)NCCC(=O)N[C@@H](CC(C)C)C(=O)N[C@H](C(=O)N[C@@H](Cc1ccccc1)C(=O)N[C@]1(C)CCCCCCC=CCCC[C@@](C)(C(=O)N[C@@H](CO)C(=O)N[C@@H](C)C(=O)N[C@@H](C)C(N)=O)NC(=O)[C@H](CC2CCC2)NC(=O)[C@H](CCC(N)=O)NC(=O)[C@H](C)NC(=O)[C@H](Cc2c[nH]c3ccccc23)NC(=O)[C@H](Cc2ccc(O)cc2)NC(=O)[C@H](CCCCN)NC1=O)[C@@H](C)O [MP-548, AZIDE-ATSP-7041 (E5K)]", "=", 12.2],
  ["CC(=O)N[C@@H](CCCCN=[N+]=[N-])C(=O)NCCC(=O)N[C@@H](CC(C)C)C(=O)N[C@H](C(=O)N[C@@H](Cc1ccccc1)C(=O)N[C@]1(C)CCCCCCC=CCCC[C@@](C)(C(=O)N[C@@H](CO)C(=O)N[C@@H](C)C(=O)N[C@@H](C)C(N)=O)NC(=O)[C@H](CC2CCC2)NC(=O)[C@H](CCC(N)=O)NC(=O)[C@H](C)NC(=O)[C@H](C)NC(=O)[C@H](Cc2ccc(O)cc2)NC(=O)[C@H](CCC(=O)O)NC1=O)[C@@H](C)O [MP-893, AZIDE-ATSP-7041(W7A)]", "=", 15]
]}
